# Study Target: Potassium voltage-gated channel subfamily KQT member 2 (Rattus norvegicus)
# Test Details: rat KCNQ2 channel potentiation, selectivity assay for KCNQ1 potentiator project, KCNQ2-CHO-K1 cells (AID 493009);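 note: assay conditions were tuned for KCNQ1 rather than KCNQ2 modulators; signal is max minus min fluorescence divided by baseline after thallium stimulus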
# Condition: FluxOR thallium flux fluorescence, at 10 µM; stronger effect = higher value, scaled: buffer 0, activator control 100
Calls of active or inactive are those of the source.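 Rule for the calls: active = mean duplicate potentiation above the buffer control mean plus 5 SD of buffer wells; inactive = the rest.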
Metric Name: potentiation

Illustrative cases are given below, each with its answer.
INSERT INTO measurements (smiles_str, metric_name, observed) VALUES
  ('CC(=O)Nc1c2c(nn1-c1ccc(C)cc1)CS(=O)(=O)C2', 'potentiation', 'inactive'),
  ('CC(=O)NC(NC(C)=O)c1ccc(N(C)C)cc1', 'potentiation', 'inactive'),
  ('COc1ccc(-c2csc(N(CCCN(C)C)C(=O)c3ccccc3C)n2)cc1', 'potentiation', 'inactive'),
  ('Cc1ccc(/C(O)=C/C(=O)C(=O)NNC(=O)C(O)(c2ccccc2)c2ccccc2)cc1', 'potentiation', 'inactive'),
  ('COc1ccc(-n2ccnc(SCC(=O)NC3CCCC3)c2=O)cc1OC', 'potentiation', 'inactive');

Turning now to a further record.
Q. Name the reported potentiation value associated with the compound `Cc1ccc(C(=O)NNC(=S)NC(=O)c2ccccc2)cc1`
A. 300% (active)

---

# Study Target: Short transient receptor potential channel 6 (Mus musculus)
# Test Details: mouse TRPC6 channel inhibitors, confirmation, HEK293 cells, membrane potential dye, duplicate (AID 488960)
# Condition: ACh-evoked depolarization, at 10 µM
The list shows a part of the results. Activity calls are given as the source filed them.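 Rule for the calls: active = fluorescence ratio falls more than 5 SD below the full-stimulation control mean, in both duplicate runs; inactive = the rest.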
// allowed return values: t (active), f (inactive)

Q. For this compound, state the assay outcome: Cc1ccc2c(c1)C1CN(C)CCC1N2C(=S)Nc1ccc(Cl)cc1Cl (stereo not given)
A. f

Q. Cool, now `CCOC(=O)N1CCC(O)(c2cc(C)c(C)cc2C)CC1`
A. t

Q. Cool, now `CCCc1cc(=O)oc2c(C)c(O)c(CN3CCCCC3)cc12`
A. t

Q. Cool, now O=C1CN(C(=O)c2ccccc2F)C(c2ccc(F)cc2)c2cc(F)ccc2N1 (stereo not given)
A. f

Q. Cool, now CSCCC(NC(=O)c1ccc(=O)n(C)n1)c1nc2ccccc2[nH]1 (stereo not given)
A. f

Q. Cool, now CCCN(CCc1ccccc1)C1CCc2c(O)cccc2C1 (stereo not given)
A. f

Q. Cool, now `Cn1c(=O)n(C)c2cc(C(=O)Nc3ccc4c(c3)OCO4)ccc21`
A. f

Q. Cool, now c1ccc(C2c3[nH]c4ccccc4c3CCN2Cc2cccn2-c2cccnc2)nc1 (stereo not given)
A. f

Q. Cool, now `COC(=O)c1ccc(NC(=O)CSc2nnc(-c3ccncc3)n2C)cc1`
A. f

Q. Cool, now `COc1ccc(Cn2c(-c3ccc(Cl)cc3)c[n+]3ccccc23)cc1`
A. t

Q. Cool, now `CN(CC(=O)Nc1ccccc1[N+](=O)[O-])Cc1ccc(Br)cc1`
A. f

Q. Cool, now CC(C)C(c1nnnn1CCc1ccccc1)N1CCN(C(=O)c2ccco2)CC1 (stereo not given)
A. t

Q. Cool, now `C[C@H](NC(=O)OC(C)(C)C)c1nnc(SCC(=O)Nc2ccc(Br)cc2)o1`
A. f

Q. Cool, now `COc1ccc(-c2nnc(NC(=O)CS(=O)(=O)c3ccc(Cl)cc3)o2)c(OC)c1`
A. f

Q. Cool, now `O=C1c2ccccc2C(=O)c2c1cccc2N1CCN(Cc2ccccc2)CC1`
A. t

Q. Cool, now `CCCCCOc1ccc(CSC2=NCCN2)cc1[N+](=O)[O-]`
A. t

Q. Cool, now `CC(C)CCNc1nc(N2CCCC2)c2c(c1C#N)CCN(C)C2`
A. t

Q. Cool, now `Cc1cc(C)c2nc3nc(C)cc(C)c3c(N)c2c1`
A. f

Q. Cool, now CN(C)CCOC(=O)C(c1ccccc1)C1(O)CCCC1 (stereo not given)
A. t

Q. Cool, now `CCC(C)(C)NC(=O)CN(C(=O)CCC(=O)Nc1nccs1)c1ccc2c(c1)OCO2`
A. f

Q. Cool, now CN(C)c1ccc(C2N(C)C(=O)c3ccccc3N2C)cc1 (stereo not given)
A. f

Q. Cool, now `C/C(=N\Nc1nc2ccccc2[nH]1)c1cccs1`
A. t

Q. Cool, now `O=C(c1ccc(-n2cnnn2)cc1)N1CCN(C(c2ccccc2)c2ccccc2)CC1`
A. t

Q. Cool, now CC(NC(=S)Nc1ccc(OC(F)F)cc1)c1ccc(F)cc1 (stereo not given)
A. f

Q. Cool, now Cc1nn(Cc2ccc(C(=O)N3N=C(C(F)F)CC3(O)C(F)F)cc2)c(C)c1[N+](=O)[O-] (stereo not given)
A. f

Q. Cool, now `CCCCc1nc(NCCN)c(C#N)c2c1CSC(C)(C)C2`
A. f

Q. Cool, now `CN(C)c1ccc(/C=C2\NC(=S)N(Cc3ccccc3)C2=O)cc1`
A. f

Q. Cool, now `CN1CCN(c2ccc([N+](=O)[O-])c(Sc3nc4ccccc4[nH]3)c2)CC1`
A. t

Q. Cool, now `COc1cc(CNCCN(C)C)ccc1OCc1c(F)cccc1Cl`
A. f

Q. Cool, now `COc1cc2c(cc1OC)C(/C=C/c1ccco1)=NCC2`
A. t

Q. Cool, now `Cc1ccccc1NC(=O)CNc1ccccc1N1CCCCC1`
A. f

Q. Cool, now `O=C(CN1CCCCCC1)NCCN1C(=O)S/C(=C\c2ccccc2Cl)C1=O`
A. f

Q. Cool, now COc1ccccc1C(CNC(=O)c1cccc(NS(=O)(=O)c2ccc(Br)cc2)c1)N(C)C (stereo not given)
A. t

Q. Cool, now `CCCCCCn1cc(C(=O)O)c(=O)c2cc(F)c(N3CCCCC3)cc21`
A. f

Q. Cool, now CC1CC(C)CN(C/C=C/c2ccccc2[N+](=O)[O-])C1 (stereo not given)
A. f

Q. Cool, now O=C(NC1C2CC3CC(C2)CC1C3)c1ccc(N2CCNCC2)c([N+](=O)[O-])c1 (stereo not given)
A. t

Q. Cool, now `Cc1cc(N2CCN(S(=O)(=O)c3ccc(C)c(C)c3)CC2)c2ccccc2n1`
A. f

Q. Cool, now `Nc1c(C(=O)c2cccs2)sc2nsc(SCCN3CCCCC3)c12`
A. f

Q. Cool, now `CCN(CC)CCNc1nc(-c2ccc(OC(F)F)cc2)c(C)s1`
A. f

Q. Cool, now CCC(C)NCCOCCOc1ccc(Br)cc1C (stereo not given)
A. f

Q. Cool, now `C=C(C)c1cccc(C(C)(C)NC(=O)NCCN(CC)CC)c1`
A. t

Q. Cool, now `CC(=O)c1cc(NC(=O)c2ccccc2)c(=O)oc1/C=C/N(C)C`
A. f

Q. Cool, now CCN(CC)S(=O)(=O)c1ccc(N2CC(C(=O)NCc3cccnc3)CC2=O)cc1 (stereo not given)
A. f

Q. Cool, now `CCCCN(C)CCCNC(=O)c1cc(-c2cccs2)nc2ccccc12`
A. f

Q. Cool, now `CCc1ccc(-c2cc(C(=O)NN3CCN(C)CC3)c3ccccc3n2)cc1`
A. f
